Reference source for all entries: ChEMBL document CHEMBL1145498

# Target Under Test: Mitogen-activated protein kinase 11 (Homo sapiens, UniProt Q15759)
# Sequence (Q15759 whole entry): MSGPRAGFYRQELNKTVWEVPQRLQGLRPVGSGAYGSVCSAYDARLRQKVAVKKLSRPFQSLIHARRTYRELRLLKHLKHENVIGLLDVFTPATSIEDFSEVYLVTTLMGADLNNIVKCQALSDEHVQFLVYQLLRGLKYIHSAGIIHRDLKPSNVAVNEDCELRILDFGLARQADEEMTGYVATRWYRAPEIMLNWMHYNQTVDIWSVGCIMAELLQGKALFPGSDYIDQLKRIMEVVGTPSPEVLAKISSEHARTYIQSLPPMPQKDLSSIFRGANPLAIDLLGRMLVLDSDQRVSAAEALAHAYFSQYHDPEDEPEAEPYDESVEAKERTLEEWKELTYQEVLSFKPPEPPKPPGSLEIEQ
Please use the following ΔTm ranges when assigning a class: band A = under 0 °C, band B = from 0 °C up to 0.8 °C, band C = 0.8 °C and over

Please review the entries below; each comes with its answer.
Query block: Band for the recorded ΔTm of COc1ccc2c(c[n+](C)c3c4cc5c(cc4ccc23)OCO5)c1OC [CHELERYTHRINE CHLORIDE] ?
Result block: band B

Query block: Band for the recorded ΔTm of `CN(c1cccnc1)c1cc2c(Nc3ccc(F)c(Cl)c3)c(C#N)cnc2cn1` ?
Result block: band B

Query block: Band for the recorded ΔTm of `Cc1nc(N)sc1-c1ccnc(Nc2cccc([N+](=O)[O-])c2)n1` ?
Result block: band C

More entries:
Query block: Band for the recorded ΔTm of COC(=O)[C@]1(O)C[C@@H]2O[C@@]1(C)n1c3ccccc3c3c4c(c5c6ccccc6n2c5c31)C(=O)NC4 (single isomer, unassigned) ?
Result block: band B

Query block: Band for the recorded ΔTm of `COc1ccc(CNc2nc(N(CCO)CCO)nc3c2ncn3C(C)C)cc1` ?
Result block: band C

Query block: Band for the recorded ΔTm of `CC(C)(C)c1nc2c3ccc(F)cc3c3c(=O)[nH]ccc3c2[nH]1` ?
Result block: band C
